- subject of test: HIV protease (Human immunodeficiency virus type 1 group M subtype B, UniProt P04585)
- Construct: HIV protease was expressed in E. coli; made in house; host or cells: E. coli (plasmid pBRT1 prt+)
- protocol summary: Recombinant HIV Protease HPLC Assay
- Assay type: biochemical
- details: Table IV; 37°, 30 min, pH 5.5
property label: IC50 (nM)

| compound string | measured value |
| --- | --- |
| CC(C)[C@H](NC(=O)OCc1ccccc1)C(=O)N[C@@H](Cc1ccccc1)[C@H](O)CN1CC[C@@H](Sc2ccccc2)C[C@H]1C(=O)NC(C)(C)C | 3.9 |
| CC(C)(C)NC(=O)[C@@H]1C[C@H](Cc2ccccc2)CCN1C[C@@H](O)[C@H](Cc1ccccc1)NC(=O)OCc1ccccc1 | 460 |
| CC(C)[C@H](NC(=O)c1ccc2ccccc2n1)C(=O)N[C@@H](Cc1ccccc1)[C@H](O)CN1CC[C@@H](Sc2ccccc2)C[C@H]1C(=O)NC(C)(C)C | 3.1 |
| CC(C)(C)NC(=O)[C@@H]1C[C@H](S(=O)(=O)c2ccccc2)CCN1C[C@@H](O)[C@H](Cc1ccccc1)NC(=O)[C@H](CC(N)=O)NC(=O)OCc1ccccc1 | 2.9 |
| CC(C)(C)NC(=O)[C@@H]1C[C@H](Sc2ccncc2)CCN1C[C@@H](O)[C@H](Cc1ccccc1)NC(=O)OCc1ccccc1 | 8 |
| CC(C)(C)NC(=O)[C@@H]1C[C@H](c2ccccc2)CCN1C[C@@H](O)[C@H](Cc1ccccc1)NC(=O)[C@H](CC(N)=O)NC(=O)OCc1ccccc1 | 6.3 |
| CC(C)[C@H](NC(=O)OCc1ccccc1)C(=O)N[C@@H](Cc1ccccc1)[C@H](O)CN1CC[C@@H](Sc2ccccn2)C[C@H]1C(=O)NC(C)(C)C | 3.2 |
| CC(C)[C@H](NC(=O)OCc1ccccc1)C(=O)N[C@@H](Cc1ccccc1)[C@H](O)CN1CC[C@@H](Sc2ncccn2)C[C@H]1C(=O)NC(C)(C)C | 3.7 |
| CC(C)(C)NC(=O)[C@@H]1C[C@H](Sc2ncccn2)CCN1C[C@@H](O)[C@H](Cc1ccccc1)NC(=O)OCc1ccccc1 | 19 |
| CC(C)[C@H](NC(=O)OCc1ccccc1)C(=O)N[C@@H](Cc1ccccc1)[C@H](O)CN1CC[C@@H](C2CCCCC2)C[C@H]1C(=O)NC(C)(C)C | 8 |
| Cc1cc(C)nc(S[C@@H]2CCN(C[C@@H](O)[C@H](Cc3ccccc3)NC(=O)[C@@H](NC(=O)OCc3ccccc3)C(C)C)[C@H](C(=O)NC(C)(C)C)C2)n1 | 3 |

----------
- subject of test: HIV protease (Human immunodeficiency virus type 1 group M subtype B, UniProt P04585)
- Construct: HIV protease was expressed in E. coli; made in house; host or cells: E. coli (plasmid pBRT1 prt+)
- protocol summary: Recombinant HIV Protease HPLC Assay
- Format: biochemical
- details: Table VII; 37°, 30 min, pH 5.5

| compound string | IC50 / nM |
| --- | --- |
| Cc1ccc(F)cc1C(=O)N[C@@H](Cc1ccccc1)[C@H](O)CN1CC[C@@H](Sc2ccncc2)C[C@H]1C(=O)NC(C)(C)C | 6.8 |
| Cc1ccccc1OCC(=O)N[C@@H](Cc1ccccc1)[C@H](O)CN1CC[C@@H](Sc2ccncc2)C[C@H]1C(=O)NC(C)(C)C | 6.2 |
| Cc1cccc(C)c1OCC(=O)N[C@@H](Cc1ccccc1)[C@H](O)CN1CC[C@@H](Sc2ccncc2)C[C@H]1C(=O)NC(C)(C)C | 3.1 |
| CC(C)(C)NC(=O)[C@@H]1C[C@H](Sc2ccncc2)CCN1C[C@@H](O)[C@H](Cc1ccccc1)NC(=O)c1c(F)cccc1F | 14 |
| Cc1cccc(C)c1OCC(=O)N[C@@H](Cc1ccccc1)[C@H](O)CN1CC[C@@H](SCc2cccnc2)C[C@H]1C(=O)NC(C)(C)C | 2.7 |
| Cc1cc(C)c(OCC(=O)N[C@@H](Cc2ccccc2)[C@H](O)CN2CC[C@@H](Sc3ccncc3)C[C@H]2C(=O)NC(C)(C)C)c(C)c1 | 3.7 |
